Biological target: human recombinant serotonin (5-Hydroxytryptamine) 5-HT2C receptor (Homo sapiens, UniProt P28335)
Construct: expressed in transfected cells; host or cells: Chinese hamster ovary (CHO-K1) cells
Sequence (P28335 33-458): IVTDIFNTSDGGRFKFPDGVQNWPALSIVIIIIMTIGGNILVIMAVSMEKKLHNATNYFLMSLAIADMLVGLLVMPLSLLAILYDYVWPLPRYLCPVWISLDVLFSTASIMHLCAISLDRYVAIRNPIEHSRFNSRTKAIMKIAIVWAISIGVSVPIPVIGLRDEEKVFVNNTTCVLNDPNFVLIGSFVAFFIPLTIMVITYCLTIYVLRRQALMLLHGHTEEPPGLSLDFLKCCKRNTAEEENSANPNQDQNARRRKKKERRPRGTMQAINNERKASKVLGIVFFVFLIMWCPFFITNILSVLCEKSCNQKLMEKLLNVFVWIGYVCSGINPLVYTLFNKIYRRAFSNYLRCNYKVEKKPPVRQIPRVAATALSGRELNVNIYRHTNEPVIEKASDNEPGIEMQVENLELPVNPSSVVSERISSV
Experiment: Serotonin 5-HT2C radioligand binding assay ([3H]Mesulergine)
Settings: 1 nM [3H]Mesulergine, read-out: Percent Inhibition of ligand binding, Serotonin (1 μM) 5-HT2C
Can you tell me inhibition at 1 µM for the items I'm about to list?

COMPOUND: CNC(=O)CC(Cn1c2c(c3cc(C)ccc31)CN(C)CC2)c1ccc(F)cc1 (stereo not drawn)
MEASURED: 95%

COMPOUND: CN1CCc2c(c3cc(Cl)ccc3n2CC2(c3ccc(F)cc3)OCCO2)C1
MEASURED: 101%

Entry Cc1ccc2c(c1)c1c(n2CC2(c3ccc(F)cc3)OCCO2)CCN(C)C1 has what inhibition at 1 µM?
93%
